Hello, the source for this data is paper PMC8162404, in case you need it.

Target: S100B (Homo sapiens, UniProt P04271)
Construct: made in house; host or cells: Escherichia coli BL21(DE3)
Sequence (P04271 whole entry): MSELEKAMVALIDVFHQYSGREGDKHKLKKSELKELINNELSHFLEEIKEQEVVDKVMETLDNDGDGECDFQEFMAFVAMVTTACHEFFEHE
Experiment: Pull-down assay with immobilized protein and LSM libraries
Type: binding
Settings: H14 library; 1:1 binding assumed; read-out: Surface mapping KD (apparent)
Procedure: Pull-down assays with immobilized test proteins and foldameric LSM libraries were carried out. Proteins were equilibrated with LSM probes, and equilibrium bound fractions (FB) were determined from the unbound fractions measured by HPLC-MS methods. Hits were corrected with background binding of the resin. […] MS data analysis. […] Using these processing setups, all raw data files were reprocessed together and analyzed. […]
observationType: Kd
The reply should read as a number followed by its unit.

Field: example entries. Status: answers known.
[[record]]
chemicalsmiles = "CC(C)C[C@@H](CC(=O)N[C@H]1CCCC[C@@H]1C(N)=O)NC(=O)[C@H]1CCCC[C@@H]1NC(=O)[C@H]1CCCC[C@@H]1NC(=O)C[C@@H](NC(=O)[C@H]1CCCC[C@@H]1N)[C@@H](C)O"
valuereported = "183 µM"

[[record]]
chemicalsmiles = "CC(C)C[C@@H](CC(=O)N[C@H]1CCCC[C@@H]1C(=O)N[C@H]1CCCC[C@@H]1C(=O)N[C@@H](CCCCN)CC(=O)N[C@H]1CCCC[C@@H]1C(N)=O)NC(=O)[C@H]1CCCC[C@@H]1N"
valuereported = "82 µM"

[[record]]
chemicalsmiles = "NC(=O)[C@H]1CCCC[C@@H]1NC(=O)C[C@H](Cc1ccccc1)NC(=O)[C@H]1CCCC[C@@H]1NC(=O)[C@H]1CCCC[C@@H]1NC(=O)C[C@H](Cc1c[nH]c2ccccc12)NC(=O)[C@H]1CCCC[C@@H]1N"
valuereported = "14 µM"


// next item, Kd requested
Kd recorded for this compound, "N=C(N)NCCC[C@@H](CC(=O)N[C@H]1CCCC[C@@H]1C(N)=O)NC(=O)[C@H]1CCCC[C@@H]1NC(=O)[C@H]1CCCC[C@@H]1NC(=O)C[C@H](CO)NC(=O)[C@H]1CCCC[C@@H]1N" , is 76 µM

* * *

Target: Gal-1 (Homo sapiens, UniProt P09382)
Construct: made in house; host or cells: E. coli BL21(DE3)
Sequence (P09382 whole entry): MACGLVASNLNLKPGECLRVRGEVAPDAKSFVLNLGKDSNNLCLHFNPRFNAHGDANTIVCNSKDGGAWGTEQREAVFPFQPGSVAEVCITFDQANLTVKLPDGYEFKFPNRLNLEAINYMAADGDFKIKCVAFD
Experiment: Competition pull-down with lactose
Format: binding
Details: H14 library; lactose 10 mM; read-out: Surface mapping KD (apparent), competition
Experimental: Interactions between the H14 helical LSMs and the targets were abundant, but safe recognition of the native PPI interfaces on the targets is a criterion of druggability. […] For highlighting the effect of the competitor on the binding fingerprints, KD ratios and the LSM replacement percentages were calculated and are represented as heat maps (see ESI, Fig. S7 ^†). […] To avoid overlooking interesting orthosteric weak binders, direct replacement levels were assessed (see ESI, Fig. S7 ^†). […]
observationType: Kd
The reply should read as a number followed by its unit.

Field: example entries. Status: answers known.
[[record]]
molecule = "NCCCC[C@@H](CC(=O)N[C@H]1CCCC[C@@H]1C(N)=O)NC(=O)[C@H]1CCCC[C@@H]1NC(=O)[C@H]1CCCC[C@@H]1NC(=O)C[C@H](CCC(N)=O)NC(=O)[C@H]1CCCC[C@@H]1N [H14 QK]"
observationtype = "Kd"
valuereported = "146 µM"

[[record]]
molecule = "NC(=O)CC[C@@H](CC(=O)N[C@H]1CCCC[C@@H]1C(=O)N[C@H]1CCCC[C@@H]1C(=O)N[C@@H](CO)CC(=O)N[C@H]1CCCC[C@@H]1C(N)=O)NC(=O)[C@H]1CCCC[C@@H]1N [H14 QS]"
observationtype = "Kd"
valuereported = "500 µM"

[[record]]
molecule = "CC(C)C[C@@H](CC(=O)N[C@H]1CCCC[C@@H]1C(=O)N[C@H]1CCCC[C@@H]1C(=O)N[C@H](CC(=O)N[C@H]1CCCC[C@@H]1C(N)=O)Cc1ccccc1)NC(=O)[C@H]1CCCC[C@@H]1N [H14 LF]"
observationtype = "Kd"
valuereported = "43 µM"

[[record]]
molecule = "CC[C@H](C)[C@@H](CC(=O)N[C@H]1CCCC[C@@H]1C(N)=O)NC(=O)[C@H]1CCCC[C@@H]1NC(=O)[C@H]1CCCC[C@@H]1NC(=O)C[C@H](Cc1ccc(O)cc1)NC(=O)[C@H]1CCCC[C@@H]1N [H14 YI]"
observationtype = "Kd"
valuereported = "256 µM"

[[record]]
molecule = "NC(=O)C[C@@H](CC(=O)N[C@H]1CCCC[C@@H]1C(=O)N[C@H]1CCCC[C@@H]1C(=O)N[C@H](CC(=O)N[C@H]1CCCC[C@@H]1C(N)=O)Cc1ccc(O)cc1)NC(=O)[C@H]1CCCC[C@@H]1N [H14 NY]"
observationtype = "Kd"
valuereported = "337 µM"

[[record]]
molecule = "C[C@@H](O)[C@@H](CC(=O)N[C@H]1CCCC[C@@H]1C(=O)N[C@H]1CCCC[C@@H]1C(=O)N[C@@H](CCCNC(=N)N)CC(=O)N[C@H]1CCCC[C@@H]1C(N)=O)NC(=O)[C@H]1CCCC[C@@H]1N [H14 TR]"
observationtype = "Kd"
valuereported = "432 µM"


// assay Gal-1 (Homo sapiens, UniProt P09382), entry NC(=O)[C@H]1CCCC[C@@H]1NC(=O)C[C@H](Cc1ccccc1)NC(=O)[C@H]1CCCC[C@@H]1NC(=O)[C@H]1CCCC[C@@H]1NC(=O)C[C@H](CO)NC(=O)[C@H]1CCCC[C@@H]1N [H14 SF] , Kd value = 312 µM

// assay Gal-1 (Homo sapiens, UniProt P09382), entry CC(C)[C@@H](CC(=O)N[C@H]1CCCC[C@@H]1C(N)=O)NC(=O)[C@H]1CCCC[C@@H]1NC(=O)[C@H]1CCCC[C@@H]1NC(=O)C[C@H](CC(=O)O)NC(=O)[C@H]1CCCC[C@@H]1N [H14 DV] , Kd value = 316 µM

// assay Gal-1 (Homo sapiens, UniProt P09382), entry C[C@@H](O)[C@@H](CC(=O)N[C@H]1CCCC[C@@H]1C(=O)N[C@H]1CCCC[C@@H]1C(=O)N[C@@H](CC(N)=O)CC(=O)N[C@H]1CCCC[C@@H]1C(N)=O)NC(=O)[C@H]1CCCC[C@@H]1N [H14 TN] , Kd value = 460 µM

// assay Gal-1 (Homo sapiens, UniProt P09382), entry C[C@@H](CC(=O)N[C@H]1CCCC[C@@H]1C(=O)N[C@H]1CCCC[C@@H]1C(=O)N[C@H](CC(=O)N[C@H]1CCCC[C@@H]1C(N)=O)[C@@H](C)O)NC(=O)[C@H]1CCCC[C@@H]1N [H14 AT] , Kd value = 416 µM

* * *

Target: RecQ-WH (Escherichia coli, UniProt P15043)
Construct: coding for residues 408– 523 of E. coli RecQ; made in house; host or cells: E. coli BL21(DE3)
Sequence (P15043 408-523): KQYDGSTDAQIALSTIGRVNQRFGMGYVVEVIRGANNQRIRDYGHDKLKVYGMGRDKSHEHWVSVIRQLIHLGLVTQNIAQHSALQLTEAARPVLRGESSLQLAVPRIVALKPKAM
Assay: Pull-down assay with immobilized protein and LSM libraries
Design: species or system E. coli
Conditions: H14 library; 1:1 binding assumed; read-out: Surface mapping KD (apparent)
Experimental: Pull-down assays with immobilized test proteins and foldameric LSM libraries were carried out. Proteins were equilibrated with LSM probes, and equilibrium bound fractions (FB) were determined from the unbound fractions measured by HPLC-MS methods. Hits were corrected with background binding of the resin. […] MS data analysis. […] Using these processing setups, all raw data files were reprocessed together and analyzed. […]
Response field label: string, one of Met (Kd strictly below 400 µM) or Not met.

[[record]]
chemicalsmiles = "NC(=O)[C@H]1CCCC[C@@H]1NC(=O)C[C@H](Cc1c[nH]c2ccccc12)NC(=O)[C@H]1CCCC[C@@H]1NC(=O)[C@H]1CCCC[C@@H]1NC(=O)C[C@H](Cc1c[nH]c2ccccc12)NC(=O)[C@H]1CCCC[C@@H]1N"
cat = "Met"

[[record]]
chemicalsmiles = "CC(C)C[C@@H](CC(=O)N[C@H]1CCCC[C@@H]1C(N)=O)NC(=O)[C@H]1CCCC[C@@H]1NC(=O)[C@H]1CCCC[C@@H]1NC(=O)C[C@@H](NC(=O)[C@H]1CCCC[C@@H]1N)C(C)C"
cat = "Met"

[[record]]
chemicalsmiles = "CC(C)C[C@@H](CC(=O)N[C@H]1CCCC[C@@H]1C(=O)N[C@H]1CCCC[C@@H]1C(=O)N[C@H](CC(=O)N[C@H]1CCCC[C@@H]1C(N)=O)C(C)C)NC(=O)[C@H]1CCCC[C@@H]1N"
cat = "Met"


Problem: Does the reported Kd of the following compound sit strictly below 400 µM? "NCCCC[C@@H](CC(=O)N[C@H]1CCCC[C@@H]1C(N)=O)NC(=O)[C@H]1CCCC[C@@H]1NC(=O)[C@H]1CCCC[C@@H]1NC(=O)C[C@H](Cc1ccccc1)NC(=O)[C@H]1CCCC[C@@H]1N"
Solution: Not met

Problem: Does the reported Kd of the following compound sit strictly below 400 µM? "CC(C)[C@@H](CC(=O)N[C@H]1CCCC[C@@H]1C(N)=O)NC(=O)[C@H]1CCCC[C@@H]1NC(=O)[C@H]1CCCC[C@@H]1NC(=O)C[C@H](CCCCN)NC(=O)[C@H]1CCCC[C@@H]1N"
Solution: Not met

Problem: Does the reported Kd of the following compound sit strictly below 400 µM? "CC[C@H](C)[C@@H](CC(=O)N[C@H]1CCCC[C@@H]1C(N)=O)NC(=O)[C@H]1CCCC[C@@H]1NC(=O)[C@H]1CCCC[C@@H]1NC(=O)C[C@H](Cc1ccccc1)NC(=O)[C@H]1CCCC[C@@H]1N"
Solution: Met
